biological target: IKZF2 (Helios) (Homo sapiens, UniProt Q96SW2+Q9UKS7); construct: Leu-Asp junction (codons ctcgac before the linker); mScarlet (behind P2A) (C, cleaved yes); expressed in transfected cells; assay: IKZF2 reporter degradation assay (HEK 293T IKZF2-mNeonGreen reporter cell line); assay type: cell-based; conditions: HEK-293T, 24 h, @ 1 μM, HEK 293T IKZF2-mNeonGreen reporter, 24 hours incubation
Sequence (Q9UKS7 whole entry): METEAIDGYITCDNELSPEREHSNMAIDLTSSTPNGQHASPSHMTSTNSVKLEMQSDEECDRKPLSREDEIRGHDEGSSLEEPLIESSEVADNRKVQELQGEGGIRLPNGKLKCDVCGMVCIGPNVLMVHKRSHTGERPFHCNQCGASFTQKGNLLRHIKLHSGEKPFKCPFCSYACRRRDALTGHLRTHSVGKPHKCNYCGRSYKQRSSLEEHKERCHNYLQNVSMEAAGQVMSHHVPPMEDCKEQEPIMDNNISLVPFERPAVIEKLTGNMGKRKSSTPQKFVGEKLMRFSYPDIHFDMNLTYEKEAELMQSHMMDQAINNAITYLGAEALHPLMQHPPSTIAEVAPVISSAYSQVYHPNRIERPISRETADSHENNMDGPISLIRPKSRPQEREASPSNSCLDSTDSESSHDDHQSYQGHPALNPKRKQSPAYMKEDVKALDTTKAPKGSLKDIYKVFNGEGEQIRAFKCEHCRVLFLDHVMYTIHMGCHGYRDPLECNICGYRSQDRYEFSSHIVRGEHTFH
Sequence (Q96SW2 whole entry): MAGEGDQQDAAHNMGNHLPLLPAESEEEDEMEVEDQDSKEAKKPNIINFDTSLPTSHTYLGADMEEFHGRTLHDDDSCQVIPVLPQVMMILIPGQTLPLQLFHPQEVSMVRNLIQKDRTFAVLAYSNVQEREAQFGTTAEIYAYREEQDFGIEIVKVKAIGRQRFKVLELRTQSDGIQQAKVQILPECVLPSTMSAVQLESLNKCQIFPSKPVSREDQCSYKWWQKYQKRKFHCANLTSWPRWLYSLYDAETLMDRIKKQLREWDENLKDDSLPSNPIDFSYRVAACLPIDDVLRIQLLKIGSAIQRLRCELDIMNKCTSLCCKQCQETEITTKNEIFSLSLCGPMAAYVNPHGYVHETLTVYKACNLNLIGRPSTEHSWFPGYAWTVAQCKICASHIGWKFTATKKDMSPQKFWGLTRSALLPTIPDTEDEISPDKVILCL
Sequence (Q16531 whole entry partner): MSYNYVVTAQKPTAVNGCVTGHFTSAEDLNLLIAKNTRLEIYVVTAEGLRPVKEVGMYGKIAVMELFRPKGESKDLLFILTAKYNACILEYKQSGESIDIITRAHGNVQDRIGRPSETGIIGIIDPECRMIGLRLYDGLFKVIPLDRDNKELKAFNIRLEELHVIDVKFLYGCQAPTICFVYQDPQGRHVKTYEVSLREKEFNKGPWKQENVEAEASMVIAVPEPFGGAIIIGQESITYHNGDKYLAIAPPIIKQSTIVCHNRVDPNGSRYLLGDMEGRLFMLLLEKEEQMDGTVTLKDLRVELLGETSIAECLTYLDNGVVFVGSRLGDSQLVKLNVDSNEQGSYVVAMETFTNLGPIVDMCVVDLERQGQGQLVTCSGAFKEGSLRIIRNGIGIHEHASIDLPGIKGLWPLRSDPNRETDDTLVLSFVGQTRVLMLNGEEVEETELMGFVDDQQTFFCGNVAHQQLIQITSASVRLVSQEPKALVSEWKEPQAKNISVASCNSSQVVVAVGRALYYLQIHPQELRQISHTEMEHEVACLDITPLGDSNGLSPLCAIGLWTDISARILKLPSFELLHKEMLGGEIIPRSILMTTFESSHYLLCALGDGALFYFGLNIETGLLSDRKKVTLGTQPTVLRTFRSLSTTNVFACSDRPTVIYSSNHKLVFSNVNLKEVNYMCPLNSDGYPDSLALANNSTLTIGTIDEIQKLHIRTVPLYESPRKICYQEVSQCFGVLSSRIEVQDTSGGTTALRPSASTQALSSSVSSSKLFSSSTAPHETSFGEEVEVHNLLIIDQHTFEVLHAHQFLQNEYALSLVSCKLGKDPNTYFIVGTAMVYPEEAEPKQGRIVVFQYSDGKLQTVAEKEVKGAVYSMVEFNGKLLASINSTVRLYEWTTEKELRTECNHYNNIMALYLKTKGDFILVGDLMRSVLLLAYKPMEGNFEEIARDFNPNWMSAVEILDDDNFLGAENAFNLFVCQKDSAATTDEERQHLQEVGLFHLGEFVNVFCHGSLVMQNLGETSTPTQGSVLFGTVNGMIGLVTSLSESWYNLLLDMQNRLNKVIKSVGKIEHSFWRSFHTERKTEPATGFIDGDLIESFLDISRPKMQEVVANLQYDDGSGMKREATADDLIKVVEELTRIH
assay_readout: inhibition at 1 µM (%)

// solved cases for inhibition at 1 µM follow
[
  {
    "compound": "N#Cc1cc(C2CN([C@@H]3CCCC[C@@H]3Oc3ccc4c(c3)CN(C3CCC(=O)NC3=O)C4=O)C2)ccn1 (mixture of isomers)",
    "assay_readout": "inhibition at 1 µM",
    "recorded_value": 68.6
  },
  {
    "compound": "Cc1cnccc1C1CN(C2CCCCC2Oc2ccc3c(c2)CN(C2CCC(=O)NC2=O)C3=O)C1 (stereo not drawn)",
    "assay_readout": "inhibition at 1 µM",
    "recorded_value": 72.3
  },
  {
    "compound": "CC1(C(=O)N2CCC(C3CN([C@H]4CCCC[C@@H]4Oc4ccc5c(c4)CN(C4CCC(=O)NC4=O)C5=O)C3)CC2)CCCC1 (stereo partly drawn)",
    "assay_readout": "inhibition at 1 µM",
    "recorded_value": 88.4
  }
]

I. O=C1CCC(N2Cc3cc(O[C@H]4CCCC[C@@H]4N4CC(c5ccc(C(F)(F)F)cn5)C4)ccc3C2=O)C(=O)N1 (single isomer, unassigned) [Compound 130-B]
II. O=C1CCC(N2Cc3cc(OC4CCCC4N4CC(c5ccc(C(F)(F)F)cn5)C4)ccc3C2=O)C(=O)N1 (stereo not drawn)
[in] Which of these two has the smaller recorded inhibition at 1 µM: I or II ? Write down the label attached to your selection.
[out] II
(II: 28.6%, I: 94.8%)

---

Item-by-item account of DC50
target: IKZF2 (Helios) (Homo sapiens, UniProt Q9UKS7); construct: Leu-Asp junction (codons ctcgac before the linker); mScarlet (behind P2A) (C, cleaved yes); expressed in transfected cells; test: IKZF2 reporter degradation assay (HEK 293T IKZF2-mNeonGreen reporter cell line); assay type: cell-based; settings: HEK 293T IKZF2-mNeonGreen reporter, 24 hours incubation
Sequence (Q9UKS7 whole entry): as the sequence (Q9UKS7 whole entry) above
Sequence (Q96SW2 whole entry, further chain): as the sequence (Q96SW2 whole entry) above
Sequence (Q16531 whole entry partner): as the sequence (Q16531 whole entry partner) above

[
  {
    "compound": "O=C1CCC(N2Cc3cc(O[C@H]4CCCC[C@@H]4N4CC(c5ccc6cccnc6c5)C4)ccc3C2=O)C(=O)N1 (stereo partly drawn) [Compound 87-B]",
    "DC50": "0.004 µM"
  },
  {
    "compound": "O=C1CCC(N2Cc3cc(O[C@@H]4CCCC[C@@H]4N4CC(c5ncc(C(F)(F)F)cn5)C4)ccc3C2=O)C(=O)N1 (single isomer, unassigned) [Compound 119-B]",
    "DC50": "> 30 µM"
  },
  {
    "compound": "O=C1CCC(N2Cc3cc(O[C@H]4CCCC[C@@H]4N4CC(c5ncc(Cl)cn5)C4)ccc3C2=O)C(=O)N1 (single isomer, unassigned) [Compound 110-B]",
    "DC50": "> 30 µM"
  },
  {
    "compound": "O=C1CCC(N2Cc3cc(O[C@@H]4CCCC[C@@H]4N4CC(c5ncc(C(F)(F)F)cn5)C4)ccc3C2=O)C(=O)N1 (single isomer, unassigned) [Compound 118-B]",
    "DC50": "> 30 µM"
  }
]

[in] Give recorded DC50 with IKZF2 (Helios) (Homo sapiens, UniProt Q9UKS7) for the following compound: O=C1CCC(N2Cc3cc(OC4CCC[C@@H]4N4CC(c5ccccn5)C4)ccc3C2=O)C(=O)N1 (mixture of isomers) [Compound 209-B]
[out] 0.23 µM

[in] Give recorded DC50 with IKZF2 (Helios) (Homo sapiens, UniProt Q9UKS7) for the following compound: O=C1CCC(N2Cc3cc(O[C@@H]4CCCC[C@@H]4N4CC(c5ncc(Br)cn5)C4)ccc3C2=O)C(=O)N1 (mixture of isomers) [Compound 138-B]
[out] > 30 µM

---

molecular target: IKZF2 (Helios) (Homo sapiens, UniProt Q96SW2+Q9UKS7); construct: Leu-Asp junction (codons ctcgac before the linker); mScarlet (behind P2A) (C, cleaved yes); expressed in transfected cells; assay: IKZF2 reporter degradation assay (HEK 293T IKZF2-mNeonGreen reporter cell line); assay type: cell-based; conditions: HEK-293T, 24 h, @ 1 μM, HEK 293T IKZF2-mNeonGreen reporter, 24 hours incubation
assay_readout: inhibition at 1 µM (%)

// solved cases for inhibition at 1 µM follow
[
  {
    "molecule": "O=C1CCC(N2Cc3cc(OC4CCCC4N4CC(c5cnc6ccccc6n5)C4)ccc3C2=O)C(=O)N1 (stereo not shown) [Compound 203-B]",
    "inhibition at 1 µM (%)": 25.1
  },
  {
    "molecule": "O=C1CCC(N2Cc3cc(O[C@@H]4CCCC[C@H]4N4CC(c5ccc(Cl)cn5)C4)ccc3C2=O)C(=O)N1 (mixture of isomers) [Compound 163-B]",
    "inhibition at 1 µM (%)": 71.5
  }
]

P. O=C1CCC(N2Cc3cc(O[C@@H]4CCCC[C@@H]4N4CC(c5ccncc5F)C4)ccc3C2=O)C(=O)N1 (mixture of isomers) [Compound 153-B]
Q. O=C1CCC(N2Cc3cc(OC4CCC[C@@H]4N4CC(c5ccccn5)C4)ccc3C2=O)C(=O)N1 (mixture of isomers) [Compound 209-B]
[in] Which of these two has the smaller recorded inhibition at 1 µM: P or Q ? Write down the label attached to your selection.
[out] Q
(Q: 38.9%, P: 73.4%)

---

molecular target: IKZF2 (Helios) (Homo sapiens, UniProt Q9UKS7); construct: Leu-Asp junction (codons ctcgac before the linker); mScarlet (behind P2A) (C, cleaved yes); expressed in transfected cells; assay: IKZF2 reporter degradation assay (HEK 293T IKZF2-mNeonGreen reporter cell line); type: cell-based; settings: HEK 293T IKZF2-mNeonGreen reporter, 24 hours incubation
assay_readout: DC50 (nM)

[
  {
    "compound": "O=C1CCC(N2Cc3cc(O[C@@H]4CCCC[C@@H]4N4CC(c5ccc(C(F)(F)F)cn5)C4)ccc3C2=O)C(=O)N1 (mixture of isomers)",
    "DC50 [nM]": 5
  },
  {
    "compound": "O=C1CCC(N2Cc3cc(O[C@H]4CCCC[C@@H]4N4CC(c5ccc(Cl)cn5)C4)ccc3C2=O)C(=O)N1 (single isomer, unassigned) [Compound 99-B]",
    "DC50 [nM]": 6
  },
  {
    "compound": "O=C1CCC(N2Cc3cc(O[C@H]4CCCC[C@@H]4N4CC(c5ncc(Br)cn5)C4)ccc3C2=O)C(=O)N1 (single isomer, unassigned) [Compound 108-B]",
    "DC50 [nM]": 6
  }
]

---

biological target: UniProt Q96SW2; assay: Cereblon (CRBN) target engagement, NanoBRET TE Intracellular E3 Ligase Assay in transfected HEK-293T cells; details: read-out: CRBN Binding EC50
pEC50: −log10 of the molar value.
assay_readout: pEC50

// solved cases for pEC50 follow
[
  {
    "molecule": "O=C1CCC(N2Cc3cc(O[C@H]4CCCC[C@@H]4N4CC(c5ccc6ccccc6n5)C4)ccc3C2=O)C(=O)N1 (single isomer, unassigned) [Compound 89-B]",
    "pEC50": 8.52
  },
  {
    "molecule": "Cc1cnccc1C1CN(C2CCCCC2Oc2ccc3c(c2)CN(C2CCC(=O)NC2=O)C3=O)C1 (stereo not drawn) [Compound 198-B]",
    "pEC50": 8.00
  },
  {
    "molecule": "Cc1cnc(C2CN([C@H]3CCCC[C@@H]3Oc3ccc4c(c3)CN(C3CCC(=O)NC3=O)C4=O)C2)nc1 (mixture of isomers) [Compound 189-B]",
    "pEC50": 7.89
  },
  {
    "molecule": "O=C1CCC(N2Cc3cc(O[C@H]4CCCC[C@H]4N4CC(c5ccc(Cl)cn5)C4)ccc3C2=O)C(=O)N1 (single isomer, unassigned) [Compound 98-B]",
    "pEC50": 7.26
  }
]

A. O=C1CCC(N2Cc3cc(OC4CCC[C@@H]4N4CC(c5ccccn5)C4)ccc3C2=O)C(=O)N1 (mixture of isomers) [Compound 209-B]
B. O=C1CCC(N2Cc3cc(O[C@H]4CCCC[C@@H]4N4CC(c5ccc(Cl)cn5)C4)ccc3C2=O)C(=O)N1 (single isomer, unassigned) [Compound 99-B]
[in] Which of these two has the smaller recorded pEC50: A or B ? Write down the label attached to your selection.
[out] A

---

target: IKZF2 (Helios) (Homo sapiens, UniProt Q96SW2+Q9UKS7); construct: Leu-Asp junction (codons ctcgac before the linker); mScarlet (behind P2A) (C, cleaved yes); expressed in transfected cells; assay: IKZF2 reporter degradation assay (HEK 293T IKZF2-mNeonGreen reporter cell line); format: cell-based; settings: HEK-293T, 24 h, @ 1 μM, HEK 293T IKZF2-mNeonGreen reporter, 24 hours incubation
assay_readout: inhibition at 1 µM (%)

// solved cases for inhibition at 1 µM follow
[
  {
    "compound": "O=C1CCC(N2Cc3cc(OC4CCCCC4N4CC(c5cccnn5)C4)ccc3C2=O)C(=O)N1 (stereo not shown)",
    "inhibition at 1 µM [%]": 31.5
  },
  {
    "compound": "O=C1CCC(N2Cc3cc(O[C@@H]4CCCC[C@@H]4N4CC(c5ccc(C(F)(F)F)cn5)C4)ccc3C2=O)C(=O)N1 (mixture of isomers)",
    "inhibition at 1 µM [%]": 78.3
  },
  {
    "compound": "Cc1ccnc(C2CN([C@H]3CCCC[C@H]3Oc3ccc4c(c3)CN(C3CCC(=O)NC3=O)C4=O)C2)n1 (mixture of isomers)",
    "inhibition at 1 µM [%]": 80.3
  },
  {
    "compound": "Cc1nccc(C2CN(C3CCCCC3Oc3ccc4c(c3)CN(C3CCC(=O)NC3=O)C4=O)C2)n1 (stereo not shown)",
    "inhibition at 1 µM [%]": 74.3
  },
  {
    "compound": "O=C1CCC(N2Cc3cc(OC4CCCC4N4CC(c5ccc6cccnc6c5)C4)ccc3C2=O)C(=O)N1 (stereo not shown)",
    "inhibition at 1 µM [%]": 56.3
  }
]

A. O=C1CCC(N2Cc3cc(O[C@H]4CCCC[C@@H]4N4CC(c5ccc6[nH]ncc6c5)C4)ccc3C2=O)C(=O)N1 (stereo partly shown)
B. O=C1CCC(N2Cc3cc(O[C@H]4CCCC[C@@H]4N4CC(c5ccc6ccccc6n5)C4)ccc3C2=O)C(=O)N1 (mixture of isomers) [Compound 152-B]
C. O=C1CCC(N2Cc3cc(OC4CCCCC4N4CC(c5ccnnc5)C4)ccc3C2=O)C(=O)N1 (stereo not shown)
[in] Ascending by inhibition at 1 µM, please: list the compounds accordingly. // list labels; follow requested order
[out] C, B, A
